system: Hepatocyte; assay: Cytotoxicity against rat hepatocytes assessed as reduction in cell growth for 4 hrs by MTT assay
TEST READOUT: IC50 (µM)
Your answer should be a plain number; it is taken to be in µM.

O=C(CSc1nc2ccccc2n2cnnc12)Nc1ccc(C(=O)Nc2ccccc2)cc1
31.3

response.value for CNC(=O)c1cc(Oc2ccc(NC(=O)Nc3ccc(Cl)c(C(F)(F)F)c3)cc2)ccn1 [SORAFENIB] (field: IC50) = 16.6
